Taken from ChEMBL document CHEMBL5653606.

# PROTOCOL: Brain concentration in rat at 1 mg/kg, po administered for 4 hrs by LC/MS analysis
# Type: ADME, organism-based
# ASSAY_CONTEXT: read-out: Ct
RECORDED_METRIC: concentration at 4 h (nM)
Answers are plain numbers, in nM.

INPUT: Which value of concentration at 4 h has been reported for `O=C(Nc1cccnn1)N1CCC(=Cc2cccc(Oc3ccc(C(F)(F)F)cn3)c2)CC1` in the records?
OUTPUT: 870

* * *

# TESTED_ON: Fatty-acid amide hydrolase 1 (Rattus norvegicus)
# Sequence (P97612 whole entry): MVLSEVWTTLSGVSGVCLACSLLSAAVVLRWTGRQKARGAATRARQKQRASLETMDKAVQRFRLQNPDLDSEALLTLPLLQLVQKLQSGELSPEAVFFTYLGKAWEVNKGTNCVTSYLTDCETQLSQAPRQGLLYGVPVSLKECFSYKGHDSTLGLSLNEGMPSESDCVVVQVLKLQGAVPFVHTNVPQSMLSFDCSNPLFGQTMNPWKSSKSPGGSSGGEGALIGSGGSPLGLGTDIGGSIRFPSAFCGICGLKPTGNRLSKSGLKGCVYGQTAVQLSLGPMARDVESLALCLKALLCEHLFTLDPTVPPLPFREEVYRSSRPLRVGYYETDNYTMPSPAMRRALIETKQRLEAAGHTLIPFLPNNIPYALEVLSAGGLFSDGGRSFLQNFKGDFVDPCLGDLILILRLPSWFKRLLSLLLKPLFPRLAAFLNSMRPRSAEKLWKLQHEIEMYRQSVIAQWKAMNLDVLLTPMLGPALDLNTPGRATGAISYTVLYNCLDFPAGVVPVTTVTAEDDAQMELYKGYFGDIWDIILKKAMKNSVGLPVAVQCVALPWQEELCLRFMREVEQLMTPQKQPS
# PROTOCOL: Inhibition of rat FAAH assessed as kinact/Ki ratio incubated for 30 min in presence of glutamate dehydrogenase by 384-well format microplate reader assay
RECORDED_METRIC: IC50 (nM)
Answers are plain numbers, in nM.

INPUT: Query: IC50; subject: `O=C(Nc1cccnn1)N1CCC(=Cc2cccc(Oc3ccc(C(F)(F)F)cn3)c2)CC1`
OUTPUT: 11.1
